cell viability listing for selected compounds.
test system: MARIMO; assay: cell viability relative to vehicle control; higher = less cytotoxic; conditions: 10 µM; SRSF2 genotype: SRSF2 wt/wt;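 note: after 48 h exposure read by CellTiter-Glo luminescence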
Numbers only here, please. The scale is %.

Example entries and their recorded answers appear below.
O=C(O)c1cc(O)ccc1O [Gentisic acid] | 105
COc1ccc(/C=C/c2cc(O)cc(O)c2)cc1O [Rhapontigenin] | 97.9
O=C(O)Cc1ccccc1Nc1c(Cl)cccc1Cl [Diclofenac Potassium] | 105
CC(=O)OC/C=C(/C)CCC=C(C)C [Neryl acetate] | 102

// next item, cell viability requested
Exercise: # query: cell viability of entry Oc1cc(O)c2c(c1)OC(c1ccc(O)c(O)c1)C(OC1(c3ccc(O)c(O)c3)Oc3cc(O)cc(O)c3C(O)C1O)C2 (stereo not given) [Proanthocyanidins]
Solution: 98.7

* * *

cell viability listing for selected compounds.
test system: OCI-AML2; assay: cell viability relative to vehicle control; higher = less cytotoxic; conditions: 10 µM; SRSF2 genotype: wt/wt
Numbers only here, please. The scale is %.

Example entries and their recorded answers appear below.
CO/N=C(\C(=O)N[C@@H]1C(=O)N2C(C(=O)OCOC(=O)C(C)(C)C)=C(/C=C\c3scnc3C)CS[C@H]12)c1csc(N)n1 | 111
CCCCCCCCC[C@H](O)CC(=O)CCc1ccc(O)c(OC)c1 | 82.4
CC[C@H](C)C(=O)O[C@H]1C[C@H](O)C=C2C=C[C@H](C)[C@H](CC[C@@H](O)C[C@@H](O)CC(=O)O)[C@H]21 [Pravastatin sodium] | 105

// next item, cell viability requested
Exercise: # query: cell viability of entry `COC(c1ccccc1)(c1ccccc1)[C@H](Oc1nc(C)cc(C)n1)C(=O)O`
Solution: 105

* * *

tested on: OCI-AML2; assay: cell viability relative to vehicle control; higher = less cytotoxic; details: 10 µM; SRSF2 genotype: wt/wt
PROPERTY_MEASURED: cell viability
Please make sure the unit comes right after the number.

CCCCNc1ncc(-c2ccc(CN3CCOCC3)cn2)c(NC2CCC(O)CC2)n1 (configuration not stated) | 22.9%
CC(C)(C)c1cc(O)ccc1O | 29.7%
CN(C)CCCNC(=O)c1ccc(-c2cc(O)c3ncccc3c2)cc1 | 33.2%
COC1(c2sc3c(N4CCOCC4)nc(-c4cnc(N)nc4)nc3c2C)COC1 | 16.4%
CCN(CC)CCNC(=O)c1c(C)[nH]c(/C=C2\C(=O)Nc3ccc(F)cc32)c1C [Sunitinib Malate] | 1.47%

// next item, cell viability requested
Exercise: # query: cell viability of entry `CC(=O)N1c2ccc(-c3ccc(C(=O)O)cc3)cc2[C@H](Nc2ccc(Cl)cc2)C[C@@H]1C`
Solution: 17.8%

* * *

system: MARIMO; assay: cell viability relative to vehicle control; higher = less cytotoxic; conditions: 10 µM; SRSF2 genotype: SRSF2 wt/wt
Counter-ions that a name gives are not always drawn.
cell viability listing for selected compounds.
Numbers only here, please. The scale is %.

O=C(c1ccc(Oc2ccccc2)cc1Cl)c1c[nH]c2ncnc(N[C@@H]3CC[C@@H](CO)OC3)c12 | 22.1
Nc1ncnc2n[nH]c(Nc3ccc(F)cc3)c12 | 67.5
CC[C@H](C)n1cc(C)c2c(C(=O)NCc3c(C)cc(C)[nH]c3=O)cc(-c3ccc(N4CCNCC4)nc3)cc21 | 94.6
N#CC(=Cc1ccc(-c2cc(Cl)ccc2Cl)o1)C(=O)Nc1cccc2ncccc12 | 99.8
C=C(C)[C@@H]1CCC2=CC(=O)C[C@@H](C)[C@]2(C)C1 | 95.4
NCCCCCNCC12CC3CC(CC(C3)C1)C2 [IEM 1754 dihydrobroMide] | 105
COc1cc(NS(=O)(=O)c2ccc(N)cc2)nc(OC)n1 [SulfadiMethoxine sodium] | 105
CC(C)=CCC[C@](C)(O[C@@H]1O[C@H](CO[C@@H]2O[C@H](CO)[C@@H](O)[C@H](O)[C@H]2O)[C@@H](O)[C@H](O)[C@H]1O)[C@H]1CC[C@]2(C)[C@@H]1[C@H](O)C[C@@H]1[C@@]3(C)CC[C@H](O[C@@H]4O[C@H](CO)[C@@H](O)[C@H](O)[C@H]4O)C(C)(C)[C@@H]3CC[C@]12C [Gypenoside XVII] | 103

Exercise: # query: cell viability of entry `CCCCCCCCCCCCCC(=S)NCCCC[C@H](NC(=O)OCc1ccccc1)C(=O)Nc1ccccc1`
Solution: 97.3

Exercise: # query: cell viability of entry COCCCOc1cc(C[C@@H](C[C@H](N)[C@@H](O)C[C@H](C(=O)NCC(C)(C)C(N)=O)C(C)C)C(C)C)ccc1OC [Aliskiren Hemifumarate]
Solution: 101

Exercise: # query: cell viability of entry CC(=O)N1CCN(c2ccc(OCC3COC(Cn4ccnc4)(c4ccc(Cl)cc4Cl)O3)cc2)CC1 (centres undefined)
Solution: 26.1

Exercise: # query: cell viability of entry `C[C@]12CC[C@H](O)CC1=CC[C@@H]1[C@@H]2CC[C@]2(C)C(n3cnc4ccccc43)=CC[C@@H]12`
Solution: 81.9

Exercise: # query: cell viability of entry `CO[C@H]1C(=O)[C@]2(C)[C@@H](OC)C[C@H]3OC[C@@]3(OC(C)=O)[C@H]2[C@H](OC(=O)c2ccccc2)[C@]2(O)C[C@H](OC(=O)[C@H](O)[C@@H](NC(=O)OC(C)(C)C)c3ccccc3)C(C)=C1C2(C)C`
Solution: 5.43

Exercise: # query: cell viability of entry CC12CCC(C1)C(C)(C)C2O (centres undefined)
Solution: 100
